Target: Neutral ceramidase (Homo sapiens) (UniProt Q9NR71)
Sequence (Q9NR71 whole entry): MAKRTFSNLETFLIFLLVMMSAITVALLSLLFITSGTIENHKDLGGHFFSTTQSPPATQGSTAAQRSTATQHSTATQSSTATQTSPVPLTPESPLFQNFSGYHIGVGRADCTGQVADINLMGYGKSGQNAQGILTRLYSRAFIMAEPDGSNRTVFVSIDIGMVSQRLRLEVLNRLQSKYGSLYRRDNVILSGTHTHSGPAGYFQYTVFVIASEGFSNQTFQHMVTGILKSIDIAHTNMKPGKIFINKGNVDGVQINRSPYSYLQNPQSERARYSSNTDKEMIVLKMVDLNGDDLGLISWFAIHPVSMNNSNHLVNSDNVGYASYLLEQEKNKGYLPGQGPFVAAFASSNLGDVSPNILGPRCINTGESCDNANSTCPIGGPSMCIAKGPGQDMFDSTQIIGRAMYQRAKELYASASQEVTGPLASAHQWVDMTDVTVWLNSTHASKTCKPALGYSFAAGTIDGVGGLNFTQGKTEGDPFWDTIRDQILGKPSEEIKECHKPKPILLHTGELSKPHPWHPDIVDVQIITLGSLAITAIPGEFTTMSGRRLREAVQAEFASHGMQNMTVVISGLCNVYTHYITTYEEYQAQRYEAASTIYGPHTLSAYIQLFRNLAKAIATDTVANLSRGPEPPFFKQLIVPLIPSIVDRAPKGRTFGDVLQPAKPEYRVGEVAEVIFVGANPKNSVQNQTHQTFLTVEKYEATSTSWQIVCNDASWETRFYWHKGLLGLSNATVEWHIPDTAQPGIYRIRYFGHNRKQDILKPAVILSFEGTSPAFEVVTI
Experiment: Inhibition of human recombinant neutral ceramidase using Acyl-NBD-C12-cer as substrate at 80 uM after 2 hrs by fluorescence assay
Calls of active or inactive are those of the source. No cut-off for these calls is given here.
attribute-measured: inhibition

- compound: "CCCCCCCCCCCCCC(=O)N[C@H](C)[C@@H](O)c1ccccc1"
  target-under-test: "Neutral ceramidase (Homo sapiens) (UniProt Q9NR71)"
  attribute-measured: "inhibition"
  observed: "8%"
- compound: "CN(C)CCCCCCCCCCCC(=O)N[C@H](CO)[C@H](O)c1ccc([N+](=O)[O-])cc1"
  target-under-test: "Neutral ceramidase (Homo sapiens) (UniProt Q9NR71)"
  attribute-measured: "inhibition"
  observed: "30%"
- compound: "CCCCCCCCCCCCCC(=O)N[C@H](C(=O)O)[C@H](O)c1ccc([N+](=O)[O-])cc1"
  target-under-test: "Neutral ceramidase (Homo sapiens) (UniProt Q9NR71)"
  attribute-measured: "inhibition"
  observed: "inactive"
- compound: "CCCCCCCCCCCCCC(=O)N[C@H](CO)C(=O)c1ccc([N+](=O)[O-])cc1"
  target-under-test: "Neutral ceramidase (Homo sapiens) (UniProt Q9NR71)"
  attribute-measured: "inhibition"
  observed: "Active"
- compound: "CN(C)CCCCCCCCCCCC(=O)NCC(O)c1cccnc1 (racemic)"
  target-under-test: "Neutral ceramidase (Homo sapiens) (UniProt Q9NR71)"
  attribute-measured: "inhibition"
  observed: "inactive"
- compound: "CCCCCCCCCCCCCC(=O)N[C@H](CO)[C@H](O)c1ccc(N)cc1"
  target-under-test: "Neutral ceramidase (Homo sapiens) (UniProt Q9NR71)"
  attribute-measured: "inhibition"
  observed: "Active"
- compound: "CN(C)CCCCCCCCCCCC(=O)NCC(O)c1ccncc1 (racemic)"
  target-under-test: "Neutral ceramidase (Homo sapiens) (UniProt Q9NR71)"
  attribute-measured: "inhibition"
  observed: "inactive"

###

Target: Alkaline ceramidase 2 (Homo sapiens, UniProt Q5QJU3)
Assay: Inhibition of alkaline ceramidase 2 in human HL-60 cells using 3H]C16-ceramide as substrate after 1 hr by liquid scintillation counting analysis
pIC50: −log10 of the molar value.
attribute-measured: pIC50

- smi: "CCCCCCCCCCCCCC(=O)N[C@H](C)[C@@H](O)c1ccccc1"
  attribute-measured: "pIC50"
  observed: 6.00

Where do these numbers come from? They come from ChEMBL document CHEMBL2331537.
